testedSystem: T1, His9-hMSR1 (human MSR1 extracellular domain) (Homo sapiens, UniProt P21757)
T1 construct: human MSR1 extracellular domain expressed with a N-terminal nonahistidine tag; His9 (nonahistidine) (N); purchased R&D Systems 2708-MS
T1 sequence (P21757 77-451 limits assumed): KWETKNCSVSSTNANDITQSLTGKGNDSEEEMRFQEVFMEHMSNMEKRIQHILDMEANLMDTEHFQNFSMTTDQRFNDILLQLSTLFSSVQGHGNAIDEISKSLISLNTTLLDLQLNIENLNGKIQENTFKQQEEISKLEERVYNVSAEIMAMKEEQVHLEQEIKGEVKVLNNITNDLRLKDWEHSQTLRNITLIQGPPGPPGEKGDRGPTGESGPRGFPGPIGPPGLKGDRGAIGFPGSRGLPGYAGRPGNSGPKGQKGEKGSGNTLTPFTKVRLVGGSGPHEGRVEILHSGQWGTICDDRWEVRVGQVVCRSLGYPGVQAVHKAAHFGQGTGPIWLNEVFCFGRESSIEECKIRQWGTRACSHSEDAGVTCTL
experimentNotes: Biacore surface plasmon resonance binding kinetics of anti-MSR1 mAbs, antibody-capture format
conditionsUsed: 25° C.; analyte His9-hMSR1; antibody-capture format; NB = no binding observed
valueKind: ka

molecule="H1H21231N: \"anti-MSR1 antibodies ... (21227N, 21231N, 21234N) were produced with the original human Fcγ portion\"; \"H1H\" = human IgG1 Fc (antibody, V domains shown, human IgG1 Fc, \"anti-MSR1 antibodies ; (21227N, 21231N, 21234N) were produced with the original human Fcγ portion\"; \"H1H\" = human IgG1 Fc) VH: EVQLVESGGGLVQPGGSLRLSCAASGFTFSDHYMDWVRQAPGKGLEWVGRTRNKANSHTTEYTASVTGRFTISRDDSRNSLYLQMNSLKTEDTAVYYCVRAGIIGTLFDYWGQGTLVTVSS VL: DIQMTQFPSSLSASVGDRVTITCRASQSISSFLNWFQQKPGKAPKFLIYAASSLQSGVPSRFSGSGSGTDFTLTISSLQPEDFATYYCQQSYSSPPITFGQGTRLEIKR" valuekind=ka endpointresult="477000 M⁻¹ s⁻¹"

Source of measurements: patent US12497460B2
